Tested on: Saccharomyces cerevisiae;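 further: PSI is a weighted mean of sequencing reads over stability bins, variants kept only with over 10 reads, mCherry proximal and sfGFP distal, peptide attached via GGGS linker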
Assay Summary: protein stability index of tFT-peptide fusion (C-terminal peptide) (PSI (0-1 scale)); higher = more stable (slower turnover)
Recorded Conditions: genetic background: wild type; temperature: 30 C
Classification field: Y = protein stability index at or over 0.7; N = protein stability index under 0.7.

Worked set:
Seq: PRLSPPRSPSPP
Class Name: N
//
Seq: RRCGTERVKARE
Class Name: Y
//
Seq: GSRARKARQPHG
Class Name: N
//
Seq: LLFPFLSFLLPL
Class Name: N
//
Seq: LLPRQSRYNAHF
Class Name: N

Is protein stability index for PSPPPLPSPPSL at or above 0.7?
Y

Is protein stability index for TEKTHRTTIVNN at or above 0.7?
Y

Is protein stability index for WDSPVMCVTIID at or above 0.7?
N
